Source of measurements: PubChem BioAssay (NCI)

test system: K-562 leukemia; assay: NCI-60 one-dose screen, 48 h; details: 10 µM unless noted
The panel holds about 83,000 compounds, 20% with a hit somewhere; the sample as a whole holds those more often. Activity calls are given as the source filed them. How the source made its calls: active means growth percent below 10; inactive means the rest.
Just give me one of these, please: active, inactive

Consider the following illustrative entries.
COMPOUND: Cc1cccc(-[n+]2noc(N)n2)c1
DISCRETE LABEL: inactive

COMPOUND: COc1cc(OC)c2cc(C(=O)c3ccc(C#N)cc3)c(=O)oc2c1
DISCRETE LABEL: inactive

COMPOUND: CCOC(=N)CC(=O)Nc1cccc(C)c1Cl
DISCRETE LABEL: inactive

COMPOUND: O=C(c1ccccc1O)N1CCCC1
DISCRETE LABEL: inactive

Switching to the query record.
Prompt: # lookup: test call for CCOC(=O)C(CCC#N)(CCC#N)C(=O)OCC
Response: inactive

----------
system: NCI-H460 lung; test: NCI-60 one-dose screen, 48 h (100 = growth as untreated, 0 = no growth, -100 = all killed); settings: 10 µM unless noted
This is part of a sample that, as a whole, favours compounds with a hit. Of some 83,000 tested, about 20% had one in any assay.
MEASUREMENT LABEL: growth (%)
Answers are plain numbers, in %.

Before answering, review these 5 worked examples.
COMPOUND: O=c1nc(Nc2cccc(Cl)c2)oc2cc(Cl)oc(=O)c12
UNIT TEXT: %
growth: 98.8
--
COMPOUND: CCCNS(=O)(=O)c1ccc(Cl)cc1
UNIT TEXT: %
growth: 103
--
COMPOUND: NS(=O)(=O)c1cc(=O)[nH]c(=O)[nH]1
UNIT TEXT: %
growth: 111
--
COMPOUND: O=C(c1cccc(C(=O)c2ccc3c4c(cccc24)C(=O)N(c2ccccc2)C3=O)c1)c1ccc2c3c(cccc13)C(=O)N(c1ccccc1)C2=O
UNIT TEXT: %
growth: 104
--
COMPOUND: O=C(O)CC1=CCCCC1
UNIT TEXT: %
growth: 106

For each listed entry, give its growth.
1. O=C(CCl)Oc1ccc([N+](=O)[O-])cc1
2. NC(CSSCC(N)C(=O)O)C(=O)O (centres undefined)
3. CCOC(=O)c1ccc(C(C)(C)C)cc1
4. Cc1ccc(C2CCCCC2)cc1Br

Response:
107
42.5
109
108

----------
test system: MCF7 breast; experiment: NCI-60 one-dose screen, 48 h; conditions: 10 µM unless noted
This is part of a sample that, as a whole, favours compounds with a hit. Of some 83,000 tested, about 20% had one in any assay. Active and inactive are the calls of the source. Rule for the calls: active = growth percent below 10; inactive = the rest.
Just give me one of these, please: 1.0 for active, 0.0 for inactive

Consider the following illustrative entries.
MOLECULE: O=S1(=O)c2ccccc2Oc2ccccc21
DISCRETE LABEL: 0.0

MOLECULE: CCC(=O)C1C(=O)c2ccccc2C1=O
DISCRETE LABEL: 0.0

MOLECULE: NC(=S)N/N=C/c1ccc(OC(=O)COc2ccc(Cl)cc2)cn1
DISCRETE LABEL: 0.0

MOLECULE: CC(C)N(CCCC#N)C(C)C
DISCRETE LABEL: 0.0

MOLECULE: CC1(c2ccccc2)CO1 (stereo not drawn)
DISCRETE LABEL: 0.0

Switching to the query record.
Prompt: # lookup: test call for CCN(C(=O)Nc1ccccc1Cl)c1ccccc1
Response: 0.0
